The reported numbers originate from PubChem BioAssay AID504766.

target: Nuclear receptor subfamily 0 group B member 1 (Homo sapiens) (UniProt P51843); assay: DAX1 (NR0B1) inhibitors, primary screen, cell-based, HEK293, Gal4-DAX1, luciferase luminescence (AID 504766); conditions: HEK293 Gal4-DAX1 luciferase reporter, at 6.75 µM;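 also: inhibition shows as a rise in luminescence from relieved DAX1 repression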
Sequence (P51843 207-470 limits assumed): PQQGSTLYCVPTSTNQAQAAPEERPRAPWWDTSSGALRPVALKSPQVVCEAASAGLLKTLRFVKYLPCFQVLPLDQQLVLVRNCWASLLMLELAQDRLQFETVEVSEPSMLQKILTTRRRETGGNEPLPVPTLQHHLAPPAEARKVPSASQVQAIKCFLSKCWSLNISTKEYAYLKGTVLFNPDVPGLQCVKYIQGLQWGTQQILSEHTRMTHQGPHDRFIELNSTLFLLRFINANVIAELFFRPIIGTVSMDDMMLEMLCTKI
Out of some 340,000 compounds screened, about 3,400 (1%) were called active.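 The calls were made as follows: active = inhibition above the mean over all tested compounds plus 3 SD (cut at about 4.2% in these data); inactive = the rest.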 The sample as a whole holds a higher share of actives than the screen did.
Outcome codes: True for active, False for inactive

Molecule: O=C(Nc1cccn(Cc2ccccc2Cl)c1=O)NC1CCCCC1
Target system: Nuclear receptor subfamily 0 group B member 1 (Homo sapiens) (UniProt P51843)
Class assignment: False
//
Molecule: COC(=O)c1sc(SC)c(S(=O)(=O)C(C)C)c1N/N=C(\C#N)S(=O)(=O)c1ccccn1
Target system: Nuclear receptor subfamily 0 group B member 1 (Homo sapiens) (UniProt P51843)
Class assignment: True
//
Molecule: CCCCCCOC(=O)NCC(O)c1ccccc1 (configuration not stated)
Target system: Nuclear receptor subfamily 0 group B member 1 (Homo sapiens) (UniProt P51843)
Class assignment: True
//
Molecule: COc1ccc2nc(-c3ccccn3)ccc2c1
Target system: Nuclear receptor subfamily 0 group B member 1 (Homo sapiens) (UniProt P51843)
Class assignment: False
//
Molecule: O=C(/C=C\c1ccc2c(c1)OCO2)NC1(C(=O)Nc2ccc3c(c2)OCCO3)CCCCC1
Target system: Nuclear receptor subfamily 0 group B member 1 (Homo sapiens) (UniProt P51843)
Class assignment: False
//
Molecule: NS(=O)(=O)c1ccc(CNC(=O)c2cc(S(=O)(=O)N3CCOCC3)ccc2N2CCCC2)cc1
Target system: Nuclear receptor subfamily 0 group B member 1 (Homo sapiens) (UniProt P51843)
Class assignment: False
//
Molecule: CC(=O)OC(C)C[N+](C)(C)C (configuration not stated)
Target system: Nuclear receptor subfamily 0 group B member 1 (Homo sapiens) (UniProt P51843)
Class assignment: False
//
Molecule: CC1CCCCC1NC(=O)Cn1c(=O)cnc2ccccc21 (configuration not stated)
Target system: Nuclear receptor subfamily 0 group B member 1 (Homo sapiens) (UniProt P51843)
Class assignment: False
//
Molecule: COCCCn1c(=O)/c(=C/c2ccccc2OC(C)C)s/c1=C(\C#N)C(=O)Nc1ccc(C(=O)O)cc1
Target system: Nuclear receptor subfamily 0 group B member 1 (Homo sapiens) (UniProt P51843)
Class assignment: False
//
Molecule: NC1=CC(=O)C(=O)c2cccnc21
Target system: Nuclear receptor subfamily 0 group B member 1 (Homo sapiens) (UniProt P51843)
Class assignment: False
//
Molecule: C[C@@H]1CN([C@@H](C)CO)C(=O)CCCn2nncc2CO[C@@H]1CN(C)S(=O)(=O)c1ccc(-c2ccccc2)cc1
Target system: Nuclear receptor subfamily 0 group B member 1 (Homo sapiens) (UniProt P51843)
Class assignment: False
//
Molecule: CCOC(OCC)c1ccc(/C=C\c2nccc(N)n2)cc1
Target system: Nuclear receptor subfamily 0 group B member 1 (Homo sapiens) (UniProt P51843)
Class assignment: True
//
Molecule: COc1ccc(NC(=O)CN2C(=O)NC(C)(c3ccccc3)C2=O)cn1 (configuration not stated)
Target system: Nuclear receptor subfamily 0 group B member 1 (Homo sapiens) (UniProt P51843)
Class assignment: False
//
Molecule: CCc1cc(-c2nnn(CCC3COCCO3)c2CC)ccc1-c1cn(Cc2ccc3ccccc3c2)nn1 (configuration not stated)
Target system: Nuclear receptor subfamily 0 group B member 1 (Homo sapiens) (UniProt P51843)
Class assignment: False
//
Molecule: O=S1(=O)CCN(Cc2ccccc2Cl)CC1
Target system: Nuclear receptor subfamily 0 group B member 1 (Homo sapiens) (UniProt P51843)
Class assignment: False
//
Molecule: O=C(/C=C/c1ccc2c(c1)OCCO2)c1ccc(O)cc1
Target system: Nuclear receptor subfamily 0 group B member 1 (Homo sapiens) (UniProt P51843)
Class assignment: True
//
Molecule: C[C@H]1CN([C@@H](C)CO)C(=O)CCCn2cc(nn2)CO[C@@H]1CN(C)S(=O)(=O)c1cccs1
Target system: Nuclear receptor subfamily 0 group B member 1 (Homo sapiens) (UniProt P51843)
Class assignment: False
//
Molecule: CC(=O)Nc1c(-c2ccc(C)cc2)nc2ccc(Cl)cn12
Target system: Nuclear receptor subfamily 0 group B member 1 (Homo sapiens) (UniProt P51843)
Class assignment: False
//
Molecule: COc1ccc(CN2C(=O)C(CC(=O)NCCCCc3ccccc3)CC(C(=O)N3CCOCC3)=C2C)cc1 (configuration not stated)
Target system: Nuclear receptor subfamily 0 group B member 1 (Homo sapiens) (UniProt P51843)
Class assignment: False
//
Molecule: O=C(/C=C/c1cnc2ccccc2n1)NC1CCCCCC1
Target system: Nuclear receptor subfamily 0 group B member 1 (Homo sapiens) (UniProt P51843)
Class assignment: True
//
Molecule: O=C(CN1C(=O)NC2(CCc3ccccc32)C1=O)NC1CCCCC1 (configuration not stated)
Target system: Nuclear receptor subfamily 0 group B member 1 (Homo sapiens) (UniProt P51843)
Class assignment: False
//
Molecule: CC(=O)OCC(COC(C)=O)OC(C)=O
Target system: Nuclear receptor subfamily 0 group B member 1 (Homo sapiens) (UniProt P51843)
Class assignment: False
